Tested on: ICS
Test summary: qHTS profiling for inhibitors of Plasmodium falciparum proliferation (AID 504749); note: nearly all actives have a fitted effect of over 60% in size
Test parameters: P. falciparum in erythrocytes, SYBR Green DNA, 72 h; series mostly up to 28.7 µM
Protocol: NIH National Institute of Allergy and Infectious Diseases [NIAID] NIH Chemical Genomics Center [NCGC] […] Because mature erythrocytes lack DNA, only Plasmodium-derived DNA is detected. NCGC Assay Protocol Summary: The SYBR Green viability assay was adapted from a method described previously (Plouffe et al., 2008). […] The following morning, fluorescence intensity at 485(14) nm excitation and 535(25) nm emission wavelengths was measured on an EnVision (Perkin Elmer) plate reader. […]
Records with an inconclusive call do not appear. The source made the active and inactive calls. Calls come from the whole dose curve; as a rule, active = well fitted inhibition curve with a large enough effect; inconclusive = small, poorly fitted or top-dose-only effect; inactive = flat fitted curve, though single readings scatter.
Outcome codes: active, inactive

[
  {
    "Molecule": "O=C(O)CCc1nc2ccccc2[nH]1",
    "Class label": "inactive"
  },
  {
    "Molecule": "O=C(O)CCNC(=O)c1ccccc1",
    "Class label": "inactive"
  },
  {
    "Molecule": "NS(=O)(=O)Cc1noc2ccccc12",
    "Class label": "inactive"
  },
  {
    "Molecule": "Nc1nc(-c2ccccc2)c(Br)c(=O)[nH]1",
    "Class label": "inactive"
  },
  {
    "Molecule": "FC1(F)C(F)(F)C(F)(F)C2(F)C(F)(F)C(F)(F)C(F)(F)C(F)(F)C2(F)C1(F)F (stereo unspecified)",
    "Class label": "inactive"
  },
  {
    "Molecule": "CN1CCN(C2=Nc3ccccc3Sc3ccc(Cl)cc32)CC1",
    "Class label": "active"
  },
  {
    "Molecule": "O=c1[nH]c(=O)n([C@H]2C[C@H](O)[C@@H](CO)O2)cc1F",
    "Class label": "inactive"
  },
  {
    "Molecule": "Cc1cccc(C)c1NC(=O)CN1CCCCCC1",
    "Class label": "inactive"
  },
  {
    "Molecule": "CCOC(=O)c1c(N)sc2c1CCN(Cc1ccccc1)C2",
    "Class label": "active"
  },
  {
    "Molecule": "CCCCN=C(N)N=C(N)N",
    "Class label": "inactive"
  },
  {
    "Molecule": "NCc1ccccc1Sc1ccccc1CO",
    "Class label": "active"
  },
  {
    "Molecule": "CCCc1ncc(C[n+]2ccccc2C)c(N)n1",
    "Class label": "inactive"
  },
  {
    "Molecule": "CCN(CC)CCNC(=O)COc1ccc(OC)cc1",
    "Class label": "inactive"
  },
  {
    "Molecule": "CCCCC(CC)COC(=O)/C=C/c1ccc(OC)cc1 (stereo unspecified)",
    "Class label": "inactive"
  },
  {
    "Molecule": "COc1cc([C@H]2Oc3cc([C@H]4Oc5cc(O)cc(O)c5C(=O)[C@@H]4O)ccc3O[C@@H]2CO)ccc1O",
    "Class label": "active"
  },
  {
    "Molecule": "CC(C)NCC(O)c1ccc2ccccc2c1 (stereo unspecified)",
    "Class label": "active"
  },
  {
    "Molecule": "CCOC(=O)c1ccc(N)cc1",
    "Class label": "inactive"
  },
  {
    "Molecule": "CCc1oc2ccccc2c1C(=O)c1cc(I)c(O)c(I)c1",
    "Class label": "inactive"
  },
  {
    "Molecule": "CCN(CC)CCNC(=O)c1cc(Br)c(N)cc1OC",
    "Class label": "inactive"
  },
  {
    "Molecule": "CN1CCN(CCC(=O)N2c3ccccc3Sc3ccc(C(F)(F)F)cc32)CC1",
    "Class label": "active"
  },
  {
    "Molecule": "NC(=O)c1ccccc1O",
    "Class label": "inactive"
  },
  {
    "Molecule": "CCN1/C(=C/C=C/c2sc3ccccc3[n+]2CC)Sc2ccccc21",
    "Class label": "active"
  },
  {
    "Molecule": "COc1cc(NS(=O)(=O)c2ccc(N)cc2)ncn1",
    "Class label": "inactive"
  },
  {
    "Molecule": "CC(C)Nc1cccnc1N1CCN(C(=O)c2cc3cc(NS(C)(=O)=O)ccc3[nH]2)CC1",
    "Class label": "active"
  },
  {
    "Molecule": "O=C(c1ccc(F)cc1)C1CCN(CCn2c(=S)[nH]c3ccccc3c2=O)CC1",
    "Class label": "active"
  },
  {
    "Molecule": "COc1cc(C(=S)N2CCOCC2)ccc1O",
    "Class label": "inactive"
  }
]
